# TARGET_OF_ASSAY: 5-hydroxytryptamine receptor 7 (Homo sapiens)
# Sequence (P34969 whole entry): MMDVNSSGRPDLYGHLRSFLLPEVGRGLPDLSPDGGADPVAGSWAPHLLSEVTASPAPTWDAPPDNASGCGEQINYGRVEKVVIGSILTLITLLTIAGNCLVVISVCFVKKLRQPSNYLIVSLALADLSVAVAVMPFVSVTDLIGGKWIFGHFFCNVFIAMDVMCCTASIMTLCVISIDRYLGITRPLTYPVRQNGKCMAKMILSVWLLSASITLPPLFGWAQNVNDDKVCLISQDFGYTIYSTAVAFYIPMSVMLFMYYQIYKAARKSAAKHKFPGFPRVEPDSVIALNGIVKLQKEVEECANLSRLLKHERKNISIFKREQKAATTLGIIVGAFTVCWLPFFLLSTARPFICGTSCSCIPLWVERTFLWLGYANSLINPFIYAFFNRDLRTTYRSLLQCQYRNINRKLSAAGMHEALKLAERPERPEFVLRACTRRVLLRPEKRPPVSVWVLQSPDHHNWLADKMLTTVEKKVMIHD
REPORTED_METRIC: pKi
Answers are plain numbers, as −log10 of the molar value.

The compound identified as O=C1Cc2cc(CCN3CCN(c4nsc5ccccc45)CC3)c(Cl)cc2N1 registered its pKi at 8.22
